For each entry below, report its GI50 value.
system: SK-MEL-2; test: NCI tumour cell line growth inhibition, 48 h
The source made the active and inactive calls. No stated cut-off is given here; in the data, active = GI50 up to about 1.1 µM and inactive = higher.

Form field: GI50 recorded for "CCN(CC)CCC(=O)/C=C/c1ccc(Cl)c(Cl)c1" with SK-MEL-2 (enter value)
8.55 µM (inactive)

Missing value: GI50, SK-MEL-2, entry "CC1=C(C(=O)N(C(C)C)C(C)C)CC(C(=O)N(C(C)C)C(C)C)=C(C)N1" . Fill in?
> 100 µM (inactive)

Observed GI50 on SK-MEL-2 for "COc1cc(/C=C(\C#N)c2ccccc2)cc(OC)c1" , please.
73.6 µM (inactive)

Tell me reported GI50 for CC1OC2OC3C(OCC(O)C3O)OC(=O)[C@]34CCC(C)(C)CC3C3=CCC5[C@@]6(C)C[C@H](O)[C@H](OC7OC(CO)C(O)C(O)C7OC7OCC(OC(=O)CC(C)(O)CC(=O)OC1C(O)C2O)C(O)C7O)[C@@](C)(CO)C6CC[C@@]5(C)[C@]3(C)CC4 (some centres undefined) , tested with SK-MEL-2.
7.91 µM (inactive)

Give SK-MEL-2 GI50 for COC(=O)C1=C(O)C(C(=O)OC)C2CC(=O)CC1C2(C)C (centres undefined)
> 100 µM (inactive)

API: value(readout= GI50, system= SK-MEL-2, query= "COC1(OC)CC(CO)(CNc2cc(Cl)nc(N)n2)C1" )
> 100 µM (inactive)

Record lookup: for SK-MEL-2, what GI50 belongs to "COC(=O)c1s/c(=N\C(=S)N(C)C)n(-c2ccc(Cl)cc2)c1C(=O)OC" ?
> 100 µM (inactive)

Any idea what GI50 came out for "CCOC(=O)/C(=C\c1ccnc2ccccc12)P(=O)(OCC)OCC" on SK-MEL-2?
2.06 µM (inactive)

# get_value(readout= GI50, system= SK-MEL-2) for "Nc1nc(N)c(C2=CCNCC2)c(=O)[nH]1"
> 100 µM (inactive)

So what GI50 did CCCCCCCCC/C=C1/CC(CO)(COC(=O)CC(C(C)C)C(C)C)OC1=O (centres undefined) get with SK-MEL-2?
15.1 µM (inactive)

SK-MEL-2 / GI50 / "COc1ccc(/C=N/n2cnc3c(c2=O)S/C(=C2/SC(=S)N(c4ccc(C)cc4)C2=O)N3c2ccccc2)cc1" : value?
79.4 µM (inactive)

SK-MEL-2 / GI50 / "c1cc2nnnn2nc1N1CCCC1" : value?
> 100 µM (inactive)

Missing value: GI50, SK-MEL-2, entry "Cc1ccccc1NC(=O)c1cc(-c2ccc([N+](=O)[O-])cc2)nc(S)n1" . Fill in?
> 100 µM (inactive)

What measured GI50 is associated with "CC(=O)c1cnc2oc3ccc(O)cc3c2c1-c1ccccc1" on SK-MEL-2?
22.6 µM (inactive)

Form: Entry = CC1=NOC(=O)C1/N=N/c1ccc(Br)c(C)c1 (centres undefined) | System = SK-MEL-2 | GI50 = ____
16.3 µM (inactive)

Entry "N#C/C(=C\c1ccc([N+](=O)[O-])o1)c1n[nH]c(Cc2ccccc2)n1" , system SK-MEL-2: what GI50 was measured?
1.99 µM (inactive)

Requested read-out GI50, target or system SK-MEL-2, entry "C=C1c2nc3ccccc3n2C=C(c2ccc(Cl)cc2)N1c1ccc(OCCN2CCCCC2)cc1"
> 45 µM (inactive)

Could you share what GI50 was measured for "CCOC(=O)c1cc2c(ccc3cc(C(=O)OCC)[nH]c32)[nH]1" , tested on SK-MEL-2?
> 100 µM (inactive)

Fill in the recorded GI50 for this molecule, with SK-MEL-2 as test system: CC(C)CC(=O)CC(C)[C@]1(CCCOCc2ccccc2)C(=O)N2CCC3(C[C@@]24CCC[C@H]41)OCCO3 (some centres undefined)
> 10 µM (inactive)

----------
test system: OVCAR-4; assay: NCI tumour cell line growth inhibition, 48 h
Calls of active or inactive are those of the source. Rule as the data show it: active = GI50 up to about 1.1 µM and inactive = higher.
Assignment: determine reported GI50 for the given compounds.

Report GI50 for "COCn1c(C)c(C)c2c(=O)oc(C)nc21" please.
> 100 µM (inactive)

Can you share its GI50? I mean this compound: "O=C1C(c2ccc([N+](=O)[O-])cc2)=C(Cl)C(=O)c2c(O)cccc21"
17.3 µM (inactive)

I would be grateful if you could share the reported GI50 for C/C=C1/CN2CCC34c5ccccc5N5C(=O)C(C6CC78c9ccccc9N9C(=O)C=CC(C%10CC7N6C/C%10=C/C)C98)=CC(C1CC23)C54 (configuration not stated) .
7.01 µM (inactive)

If you can, please state the reported GI50 value of "O=c1[nH]c2ccsc2c(=O)n1COCc1ccccc1" .
> 100 µM (inactive)

Param item = "COC(=O)Cc1nc2ccccc2o1" ; retrieve measured GI50.
> 100 µM (inactive)

Tell me the measured GI50 of COc1ccc2c(c1)CC[C@@H]1C2CC[C@](C)(C#N)C1CC#N (some centres not stated) , please.
> 100 µM (inactive)

Query (compound): "c1cc2nnnn2nc1N1CCCC1" ; field requested: GI50
> 100 µM (inactive)

Record request: GI50 value, item "COc1cccc(/C=N/NC(=O)CN(C)C)c1O"
> 100 µM (inactive)

Requested field: GI50. Item: COC(=O)C1Cc2cc3c(cc2C1=O)CCC3 (configuration not stated)
42.1 µM (inactive)

What measured GI50 goes with "COc1cc2nc(-c3cccs3)nc(Nc3ccccc3C(=O)NN)c2cc1OC" ?
27.8 µM (inactive)

Returns the measured GI50 for the input compound. Input: CC1=C(C)CC2(CCCCC2=O)[S+]([O-])C1 (configuration not stated)
> 100 µM (inactive)

For the compound "Cc1cc(C)nc(NC(=S)Nc2ccc(Cl)cc2)c1" , what GI50 is on record?
18.4 µM (inactive)

----------
test system: TK-10; assay: NCI tumour cell line growth inhibition, 48 h
Activity calls are given as the source filed them. Rule as the data show it: active = GI50 up to about 1.1 µM and inactive = higher.
I'd be grateful if you could share measured GI50 for these entries.

Returns the measured GI50 for the input compound. Input: "CCOC(=O)c1nc2ccccc2nc1Oc1ccc(OC)cc1"
> 100 µM (inactive)

Request the reported GI50 associated with "COc1cc(C[C@@H](C)N)cc(OC)c1"
> 100 µM (inactive)

Bench note: what GI50 did O=C1CCCCC(=O)OC2(CCCCC2=O)CC1 (stereo unspecified) show?
> 100 µM (inactive)

For the compound shown here, "COC(=O)C1=C(C)NC(C)=C(C(=O)OC)C1c1cccc(/[N+]([O-])=C/c2ccccc2)c1" , give the reported GI50.
38.9 µM (inactive)

Fill blank: measured GI50 of the compound "Clc1ccccc1/C=C/c1ccnc2ccccc12" is ____.
18 µM (inactive)

I would be grateful if you could share the reported GI50 for "C(#CP(c1ccccc1)c1ccccc1)P(C#CP(c1ccccc1)c1ccccc1)c1ccccc1" .
> 100 µM (inactive)

----------
system: OVCAR-4; assay: NCI tumour cell line growth inhibition, 48 h
Activity calls are given as the source filed them. Rule as the data show it: active = GI50 up to about 1.1 µM and inactive = higher.
For each of the compounds below, state its GI50.

Consider the compound "CCOC(=O)C1=C(N)N(c2ccccc2)/C(=C(/C#N)c2nc3ccccc3[nH]2)S1" and give its measured GI50.
> 100 µM (inactive)

Given the entry "CC1(C)N=C(N)N=C(N)N1c1cccc(CSc2ccccc2)c1" , report its measured GI50.
2.29 µM (inactive)

# query: GI50 of entry "CCOc1ccc(C(=O)/C=C2/Nc3ccccc3N/C2=C/C(=O)c2ccc(OCC)cc2)cc1"
72.3 µM (inactive)

Which value of GI50 has been reported for "COc1cccc(-c2nc(-c3cnccn3)n(COCCO)n2)c1" in the records?
> 100 µM (inactive)

# input compound: COc1cc([C@@H]2c3cc4c(cc3[C@@H](NC(=O)c3ccc(C(C)=O)cc3)C3COC(=O)[C@@H]32)OCO4)cc(OC)c1O (stereo not given in full) ; wanted: its GI50
27.3 µM (inactive)

----------
test system: EKVX; assay: NCI tumour cell line growth inhibition, 48 h
Calls of active or inactive are those of the source. No stated cut-off is given here; in the data, active = GI50 up to about 1.1 µM and inactive = higher.
Property: GI50

What does the record list as GI50 for CNC(=O)OC(COC)CN1CCN(c2ccccc2C)CC1 (stereo not given) ?
> 10 µM (inactive)

Which GI50 reading was recorded for the compound "COC(=O)CCCC(=O)C1=NN(c2ccc(Cl)cc2)Cc2ccccc2N1" ?
70.6 µM (inactive)

Which GI50 is listed for CCOC(=O)C(c1ccsc1)P(=O)(OCC)OCC (stereo not given) ?
23.9 µM (inactive)

For the compound CCC1(C(=O)OC(C)(C)C)OC12C(C)CCCC2C (stereo not given) , what GI50 is on record?
63.7 µM (inactive)

Quick one: GI50 of COc1ccc(-c2oc3cc(O)c(OC)c(O)c3c(=O)c2OC2OC(CO)C(O)C(O)C2O)cc1 (stereo not given) ?
> 100 µM (inactive)

Quick one: GI50 for "CC(=O)/C=C1/C(=O)C(CC(C)C)=C1CC(C)C" ?
> 100 µM (inactive)

Field request: GI50 | item: CN(C)CC1CCCCCC(Br)C1=O (stereo not given)
15.1 µM (inactive)

Look up GI50: "Cc1cc(C)nc(NC(=S)Nc2ccc(Cl)cc2)c1"
17.4 µM (inactive)

So what's the measured GI50 for this one? C/C=C1/CN2CCC34c5ccccc5N5C(=O)C(C6CC78c9ccccc9N9C(=O)C=CC(C%10CC7N6C/C%10=C/C)C98)=CC(C1CC23)C54 (stereo not given)
6.64 µM (inactive)

Value lookup for GI50; key = "N=C(N)NS(=O)(=O)c1ccc(NC(=O)c2cccc3c(Nc4ccc(S(N)(=O)=O)cc4)c4ccccc4nc23)cc1"
> 100 µM (inactive)

All figures here come from ChEMBL document CHEMBL1201862.
